Tested on: MOLT-4
Assay: NCI tumour cell line growth inhibition, 48 h
The source made the active and inactive calls. Cut-off read from the data, not from the text of the source: active = GI50 up to about 1.1 µM and inactive = higher.
Exercise: for every item that follows, state its recorded GI50.

Here's what some known entries look like.
1) COC(=O)C(NC(=O)c1ccccc1)C(c1ccc(Cl)cc1)P(=O)(OC)OC (stereo not given)
> 100 µM (inactive)
2) C[C@@H]([C@H]1CC[C@@]2(C)[C@@H]3CC[C@@H]4C(=CC3=CC[C@]12C)CC[C@H](N(C)C)C4(C)C)N(C)C [BUXAMINE A]
> 100 µM (inactive)
3) CCOC(=O)N1CCN(c2ccc3c(C)cc(C)nc3n2)CC1
> 100 µM (inactive)

Required: GI50, one value per molecule below.
1. Cc1ccc(O)c(/N=N/c2ccc(S(=O)(=O)O)cc2)n1
2. CN(C)CCCn1c(Cc2ccccc2)nc2cc(C(F)(F)F)ccc21

A.
1. > 100 µM (inactive)
2. 19.8 µM (inactive)

----------
Tested on: SK-OV-3
Assay: NCI tumour cell line growth inhibition, 48 h
Activity calls are given as the source filed them. Rule as the data show it: active = GI50 up to about 1.1 µM and inactive = higher.
Lab note: assign the record to one of active, inactive

1. Nc1nc(Cl)cc(NCC2(CO)CC(CCCCc3ccccc3)C2)n1 (stereo unspecified)
inactive
2. CN1CN(c2ccccc2)C2(CCN(Cc3csc4ccccc34)CC2)C1=O
inactive

Q. I would be grateful if you could indicate the recorded call for CCOC(=O)C(=O)/C(=C/NC(=S)Nc1ccc(Cl)c(Cl)c1)C(=O)OCC .
A. inactive

Q. I would be grateful if you could indicate the recorded call for Cc1ccc2c(O)cc(-c3cccc(Cl)c3)nc2n1 .
A. active

Q. I would be grateful if you could indicate the recorded call for O=C1OC(C2Cc3ccc4c(c3C2=O)CCCC4)c2ccccc21 (stereo unspecified) .
A. inactive

Q. I would be grateful if you could indicate the recorded call for CCOP(=O)(OCC)/C(F)=C/c1ccccc1 .
A. inactive

Q. I would be grateful if you could indicate the recorded call for COc1ccc(CCNC(=O)Cc2ccccc2CCO)cc1OC .
A. inactive

Q. I would be grateful if you could indicate the recorded call for Cc1cc(/N=C/c2ccc(Cl)cc2)n(-c2ccccc2)n1 .
A. inactive

Q. I would be grateful if you could indicate the recorded call for COC(=O)C(NC(=O)c1ccccc1)C(c1ccc(Cl)cc1)P(=O)(OC)OC (stereo unspecified) .
A. inactive

Q. I would be grateful if you could indicate the recorded call for COC1CC(COCc2ccccc2)CC(OC)O1 (stereo unspecified) .
A. inactive

Q. I would be grateful if you could indicate the recorded call for Nc1ncnc2c1ncn2C1OC(CSC(F)F)C(O)C1O (stereo unspecified) .
A. inactive

Q. I would be grateful if you could indicate the recorded call for Cc1c(/C=N/NC(=O)c2cc(Br)cc(Br)c2O)c(=O)n(-c2ccccc2)n1C .
A. inactive

Q. I would be grateful if you could indicate the recorded call for COC(=O)c1ccc2n1C1CC3CC(CC2C3)C1 .
A. inactive

Q. I would be grateful if you could indicate the recorded call for CC(=O)O[C@H]1C[C@H]2[C@@H]([C@H](OC(C)=O)C[C@@H]3CC4(CC[C@@]32C)OOC2(CCCCC2)OO4)[C@@H]2CC[C@H]([C@H](C)CCC(N)=O)[C@@]12C .
A. inactive

Q. I would be grateful if you could indicate the recorded call for C=C1C(=O)O[C@H]2[C@H]1[C@H](OC(=O)/C(C)=C\C)C[C@]1(CO1)[C@@H]1[C@H](OC(C)=O)C=C(C)[C@]21O [EUPAROTIN ACETATE] .
A. inactive

Q. I would be grateful if you could indicate the recorded call for NCc1ccccc1.O=C(O)NCc1ccccc1 .
A. inactive
